This collection of values is drawn from ChEMBL document CHEMBL4393657.

- Tested on: Candida albicans
- Assay Notes: Antifungal activity against Candida albicans assessed as reduction in fungal cell growth incubated for 48 hrs by broth microdilution method
- Format: functional
Assay Readout: MIC

Compound	Measured Result
COc1ccc(N2CCN(CCc3nnn([C@@H](C)[C@](O)(Cn4cncn4)c4ccc(F)cc4F)n3)CC2)cc1	0.25 to 16 µg/mL
COc1ccccc1N1CCN(CCc2nnnn2C(C)C(O)(Cn2cncn2)c2ccc(F)cc2F)CC1 (centres undefined)	0.5 to 16 µg/mL
COc1ccccc1N1CCN(CCc2nnnn2CC(O)(Cn2cncn2)c2ccc(F)cc2F)CC1 (centres undefined)	0.5 to 16 µg/mL
OC(Cn1cncn1)(Cn1nnc(CCN2CCN(c3cccc(Cl)c3)CC2)n1)c1ccc(F)cc1F (centres undefined)	1 to 16 µg/mL

----------
- System: Cryptococcus neoformans
- Assay Notes: Antifungal activity against Cryptococcus neoformans LA314 assessed as reduction in fungal cell growth incubated for 48 hrs by broth microdilution method
- Type: functional
- Condition Details: LA314, 48 h

Molecule	Tested Target	MIC
OC(Cn1cncn1)(Cn1nnc(CCN2CCN(c3c(Cl)cccc3Cl)CC2)n1)c1ccc(F)cc1F (stereo not given)	Cryptococcus neoformans	1 to 16 µg/mL
OC(Cn1cncn1)(Cn1nnc(CCN2CCN(c3ccccc3)CC2)n1)c1ccc(F)cc1F (stereo not given)	Cryptococcus neoformans	1 to 16 µg/mL
OC(Cn1cncn1)(Cn1cncn1)c1ccc(F)cc1F	Cryptococcus neoformans	2 to 8 µg/mL
CC(n1nnnc1CCN1CCN(c2cccc(Cl)c2)CC1)C(O)(Cn1cncn1)c1ccc(F)cc1F (stereo not given)	Cryptococcus neoformans	0.5 to 16 µg/mL
COc1ccccc1N1CCN(CCc2nnn(C(C)C(O)(Cn3cncn3)c3ccc(F)cc3F)n2)CC1 (stereo not given)	Cryptococcus neoformans	1 to 16 µg/mL
CC(n1nnnc1CCN1CCN(c2ccccn2)CC1)C(O)(Cn1cncn1)c1ccc(F)cc1F (stereo not given)	Cryptococcus neoformans	0.5 to 16 µg/mL
OC(Cn1cncn1)(Cn1nnc(CCN2CCN(c3ccc(F)cc3)CC2)n1)c1ccc(F)cc1F (stereo not given)	Cryptococcus neoformans	1 to 16 µg/mL
C[C@H](n1nnc(CCN2CCN(c3ccc(Cl)cc3)CC2)n1)[C@](O)(Cn1cncn1)c1ccc(F)cc1F	Cryptococcus neoformans	0.25 to 16 µg/mL
CCCCOc1ccccc1N1CCN(CCc2nnnn2CC(O)(Cn2cncn2)c2ccc(F)cc2F)CC1 (stereo not given)	Cryptococcus neoformans	0.5 to 16 µg/mL
C[C@H](n1nnnc1CCN1CCN(c2c(Cl)cccc2Cl)CC1)[C@](O)(Cn1cncn1)c1ccc(F)cc1F	Cryptococcus neoformans	0.12 to 16 µg/mL
COc1ccc(N2CCN(CCc3nnn(C(C)C(O)(Cn4cncn4)c4ccc(F)cc4F)n3)CC2)cc1 (stereo not given)	Cryptococcus neoformans	1 to 16 µg/mL
CC(n1nnc(CCN2CCN(c3ccccc3)CC2)n1)C(O)(Cn1cncn1)c1ccc(F)cc1F (stereo not given)	Cryptococcus neoformans	1 to 16 µg/mL
COc1ccc(N2CCN(CCc3nnn([C@@H](C)[C@](O)(Cn4cncn4)c4ccc(F)cc4F)n3)CC2)cc1	Cryptococcus neoformans	0.25 to 16 µg/mL
OC(Cn1cncn1)(Cn1nnc(CCN2CCN(Cc3ccccc3)CC2)n1)c1ccc(F)cc1F (stereo not given)	Cryptococcus neoformans	1 to 16 µg/mL
OC(Cn1cncn1)(Cn1nnnc1CCN1CCN(C(c2ccccc2)c2ccccc2)CC1)c1ccc(F)cc1F (stereo not given)	Cryptococcus neoformans	0.5 to 16 µg/mL
C[C@H](n1nnc(CCN2CCN(c3ccc(F)cc3)CC2)n1)[C@](O)(Cn1cncn1)c1ccc(F)cc1F	Cryptococcus neoformans	0.25 to 16 µg/mL
C[C@H](n1nnnc1CCN1CCN(c2ccccc2)CC1)[C@](O)(Cn1cncn1)c1ccc(F)cc1F	Cryptococcus neoformans	0.12 to 16 µg/mL
CC(n1nnc(CCN2CCN(c3ccccc3Cl)CC2)n1)C(O)(Cn1cncn1)c1ccc(F)cc1F (stereo not given)	Cryptococcus neoformans	1 to 16 µg/mL
CC(n1nnnc1CCN1CCN(c2ccc([N+](=O)[O-])cc2)CC1)C(O)(Cn1cncn1)c1ccc(F)cc1F (stereo not given)	Cryptococcus neoformans	0.5 to 16 µg/mL
C[C@H](n1nnnc1CCN1CCN(c2cccc(C(F)(F)F)c2)CC1)[C@](O)(Cn1cncn1)c1ccc(F)cc1F	Cryptococcus neoformans	0.12 to 1 µg/mL
O=[N+]([O-])c1ccc(N2CCN(CCc3nnn(CC(O)(Cn4cncn4)c4ccc(F)cc4F)n3)CC2)cc1 (stereo not given)	Cryptococcus neoformans	1 to 16 µg/mL
O=[N+]([O-])c1ccc(N2CCN(CCc3nnnn3CC(O)(Cn3cncn3)c3ccc(F)cc3F)CC2)cc1 (stereo not given)	Cryptococcus neoformans	0.5 to 16 µg/mL
CC(n1nnc(CCN2CCN(c3ccc(F)cc3)CC2)n1)C(O)(Cn1cncn1)c1ccc(F)cc1F (stereo not given)	Cryptococcus neoformans	1 to 16 µg/mL
CC(n1nnc(CCN2CCN(c3ccc(Cl)cc3)CC2)n1)C(O)(Cn1cncn1)c1ccc(F)cc1F (stereo not given)	Cryptococcus neoformans	1 to 16 µg/mL
C[C@H](n1nnnc1CCN1CCN(c2ccccc2Cl)CC1)[C@](O)(Cn1cncn1)c1ccc(F)cc1F	Cryptococcus neoformans	0.12 to 16 µg/mL
